// compounds with reported IC50 on RORc (Homo sapiens), multi-publication
The label is Yes for IC50 below 100 nM and No for IC50 equal to or exceeding 100 nM.

Enquiry: # check: IC50 < 100 nM for C[C@H](O[C@@]12CC[C@@H](c3cc(-c4c(F)cccc4F)nnc31)C2(C)C)C(N)=O
Return: No

Enquiry: What about this compound? C[C@H]1CC[C@H](c2ccccc2)S(=O)(=O)N1Cc1ccc(C2(CO)CC2)cc1F
Return: No

Enquiry: And what about the compound CC1(C)[C@H]2CC[C@]1(c1ccnc(-n3cncn3)n1)c1nnc(-c3c(F)cccc3F)cc12 ?
Return: Yes

Enquiry: Same again, this time with COC(=O)c1ccc(COC[C@]23CC[C@H](c4cc(-c5ccccc5F)nnc42)C3(C)C)cc1
Return: No

Enquiry: Another compound: CNC(=O)c1nccnc1O[C@@]12CC[C@@H](c3cc(-c4c(F)cccc4F)nnc31)C2(C)C
Return: Yes

Enquiry: Subsequent entry: CC1(C)[C@H]2CC[C@]1([C@H]1CCCN(C(=O)NC3CCC3)C1)c1nnc(-c3c(F)cccc3F)cc12
Return: Yes

Enquiry: Now the same for CC[C@@H](O[C@@]12CC[C@@H](c3cc(-c4c(F)cccc4F)nnc31)C2(C)C)C(=O)Nc1nnc(C)o1
Return: Yes

Enquiry: Another: CC(=O)NCC(=O)N(CCO)C[C@@]12CC[C@@H](c3cc(-c4c(F)cccc4F)nnc31)C2(C)C
Return: No

Enquiry: Next entry: CCNC(=O)N1CCC[C@H]([C@@]23CC[C@@H](c4cc(-c5c(F)cccc5F)nnc42)C3(C)C)C1
Return: Yes

Enquiry: Next entry: CC(NC(=O)c1cocn1)c1cc(F)c(CN2[C@@H](C)CC[C@H](c3ccccc3)S2(=O)=O)cc1F (stereo in doubt)
Return: No

Enquiry: Next: CN(C)S(=O)(=O)N1CCN(c2ccc(S(=O)(=O)N(Cc3ccccc3C(F)(F)F)C(C)(C)C)cc2)CC1
Return: Yes

Enquiry: How about this compound: CC(C)CN([C@@H](CO)c1ccccc1)S(=O)(=O)c1ccc(N2CCN(S(C)(=O)=O)CC2)cc1
Return: No

Enquiry: Query COC1(OC)CC(C(N)=O)(c2ccc(CN3[C@@H](C)CC[C@H](c4ccccc4)S3(=O)=O)c(F)c2)C1 next
Return: Yes

Enquiry: Query CC[C@@H](O)c1coc(-c2cncc([C@@]34CC[C@@H](c5cc(-c6c(F)cccc6F)nnc53)C4(C)C)n2)n1 next
Return: Yes

Enquiry: Same lookup for CC1(C)[C@H]2CC[C@]1(CN(CCC#N)C(=O)CO)c1nnc(-c3c(F)cccc3F)cc12 , please.
Return: No

Enquiry: Now this one: CC(=O)N1CCC(O)(c2ccc(CN3[C@@H](C)CCC(c4ccccc4)S3(=O)=O)cc2)CC1 (some centres unmarked)
Return: No

Enquiry: Repeat for the following compound: COCCN(C[C@@]12CC[C@@H](c3cc(-c4c(F)cccc4F)nnc31)C2(C)C)c1nnc(C)o1
Return: Yes

Enquiry: Here is the next compound: CC1(C)[C@H]2CC[C@]1(OCC(N)=O)c1nnc(-c3c(F)cccc3F)cc12
Return: No

Enquiry: Likewise for CC1(C)[C@H]2CC[C@]1(c1ccnc(-n3cccn3)n1)c1nnc(-c3c(F)cccc3F)cc12 ?
Return: Yes

Enquiry: Try this compound too: CC1(C)[C@H]2CC[C@]1([C@@H]1CNCCO1)c1nnc(-c3c(F)cccc3F)cc12
Return: No

Enquiry: Also C[C@H]1CC[C@H](c2ccccc2)S(=O)(=O)N1Cc1ccc(C2(C(N)=O)CC(F)(F)C2)cc1F , if possible.
Return: Yes

Enquiry: What would you report for C[C@@H](CO)NC(=O)c1ccnc([C@@]23CC[C@@H](c4cc(-c5c(F)cccc5F)nnc42)C3(C)C)c1 ?
Return: No

Enquiry: # iterate: Cc1noc([C@]23CC[C@H](c4cc(-c5c(F)cccc5F)nnc42)C3(C)C)n1
Return: No

Enquiry: What do you have for CCN(C[C@@]12CC[C@@H](c3cc(-c4c(F)cccc4F)nnc31)C2(C)C)C(=O)CO ?
Return: Yes

Enquiry: Same for CC1(C)[C@H]2CC[C@]1(C(=O)NC1CCC1)c1nnc(-c3ccccc3F)cc12
Return: No

----------
Collected set of pIC50 measured with RORc (Homo sapiens) across studies.
Quick note: pIC50 values are minus log10 of concentrations in mol/L.

Enquiry: Form field: pIC50 recorded for CC1(C)[C@H]2CC[C@]1(C(=O)NC1CCCC1)c1nnc(-c3ccccc3F)cc12 with RORc (Homo sapiens) (enter value)
Return: 5.94

Enquiry: Thanks! And CC(=O)OC[C@@]12CC[C@@H](c3cc(Oc4c(F)cccc4F)nnc31)C2(C)C ?
Return: 7.00

Enquiry: Try the compound CC1(C)[C@H]2CC[C@]1(c1ccnc(C3CCN(S(C)(=O)=O)CC3)n1)c1nnc(-c3c(F)cccc3F)cc12
Return: 8.20

Enquiry: Can you handle Cc1ncccc1COc1ccc(CN2[C@@H](C)CCC(c3ccccc3)S2(=O)=O)cc1 (some centres unmarked) next?
Return: 7.24

Enquiry: Try this compound next: CCNC(=O)N(CC(F)F)C[C@@]12CC[C@@H](c3cc(-c4c(F)cccc4F)nnc31)C2(C)C
Return: 7.38

Enquiry: Try CN1CCO[C@@H]([C@@]23CC[C@@H](c4cc(-c5c(F)cccc5F)nnc42)C3(C)C)C1 next.
Return: 6.43

----------
Reported IC50 against RORc (Homo sapiens, UniProt P51449), gathered from multiple publications, appears below.

Enquiry: GET /values?readout=IC50&item= CC1(C)[C@H]2CC[C@]1(Cn1ccccc1=O)c1nnc(-c3c(F)cccc3F)cc12
Return: 199 nM

Enquiry: Entry O=C(O)C(CNc1ncnc(N(Cc2ccc(C(F)(F)F)cc2)C2CC2)c1F)CC1CCOCC1 (stereo not shown) please
Return: < 10000 nM

Enquiry: Also check CC(NC(=O)c1ccn(C)n1)c1cc(F)c(CN2[C@@H](C)CC[C@H](c3ccccc3)S2(=O)=O)cc1F (stereo in doubt)
Return: 254 nM

Enquiry: Now consider Cc1noc(N2CCO[C@@H]([C@@]34CC[C@@H](c5cc(-c6c(F)cccc6F)nnc53)C4(C)C)C2)n1 and answer again.
Return: 101 nM

Enquiry: // next record CN(C)S(=O)(=O)N1CCN(c2ccc(S(=O)(=O)N(Cc3ccccc3C(F)(F)F)CC(F)F)cc2)CC1
Return: 116 nM

Enquiry: # repeat for CC(C)CN(Cc1ccc(-c2cccnc2)s1)S(=O)(=O)Cc1ccccc1
Return: 1700 nM

Enquiry: Param item: CN(C)CC(=O)N[C@@]12CC[C@@H](c3cc(-c4ccccc4F)nnc31)C2(C)C
Return: 5190 nM

----------
Field: log10 of IC50. System: RORc (Homo sapiens, UniProt P51449). Provenance: assorted publications.
Scale: log10; quantity: IC50; unit before log: nM

Enquiry: GET /values?readout=log10 of IC50&item= CC(C)(O)c1c[nH]c(-c2cncc([C@@]34CC[C@@H](c5cc(-c6c(F)cccc6F)nnc53)C4(C)C)n2)n1
Return: 1.13

Enquiry: Consider next the compound CC1(C)[C@H]2CC[C@]1([C@H]1CN(c3ncn[nH]3)CCO1)c1nnc(-c3c(F)cccc3F)cc12 in the same way.
Return: 1.53

Enquiry: Follow-up entry: C[C@@H](O)c1nnc(-c2ncc(F)c([C@@]34CC[C@@H](c5cc(-c6c(F)cccc6F)nnc53)C4(C)C)n2)[nH]1
Return: 1.33

Enquiry: Queued: CC(C)(C)OC(=O)N1CCNC[C@H]1[C@@]12CC[C@@H](c3cc(-c4c(F)cccc4F)nnc31)C2(C)C
Return: 0.49

Enquiry: Also check CC1(C)[C@@H]2CC[C@@]1(C(=O)NCC(F)F)c1nnc(-c3c(F)cccc3F)cc12
Return: 2.72

Enquiry: Next up: CC1(C)[C@H]2CC[C@]1(c1cc(CO)ccn1)c1nnc(-c3c(F)cccc3F)cc12
Return: 1.67

Enquiry: Same read-out for C[C@H]1CC[C@H](c2ccccc2)S(=O)(=O)N1Cc1cc(F)c(C2(OCC(=O)NCCO)CCOCC2)cc1F ?
Return: 1.18

Enquiry: Also CC1(C)[C@H]2CC[C@]1(CN(CCO)c1ncccn1)c1nnc(-c3c(F)cccc3F)cc12 ?
Return: 2.09

Enquiry: Also CC1(C)[C@H]2CC[C@]1([C@@H]1CN(c3nc(CO)co3)CCO1)c1nnc(-c3c(F)cccc3F)cc12 , if possible.
Return: 0.94

Enquiry: Please answer likewise for CC1(C)[C@H]2CC[C@]1(c1cncc(C(=O)NC3(CO)CC3)n1)c1nnc(-c3c(F)cccc3F)cc12
Return: 1.65

Enquiry: Then what about the compound CC1(C)[C@H]2CC[C@]1(c1cncc(C(=O)NC3COC3)n1)c1nnc(-c3c(F)cccc3F)cc12 ?
Return: 1.63

Enquiry: # repeat for C[C@H]1CC[C@H](c2ccccc2)S(=O)(=O)N1Cc1cc(F)c(C2(C(=O)O)CCOCC2)cc1F
Return: 2.33

Enquiry: Queued: C[C@H]1CC[C@H](c2ccccc2)S(=O)(=O)N1Cc1cc(F)c(C2(CO)CCOCC2)cc1F
Return: 0.95

Enquiry: Check CC1(C)[C@H]2CC[C@]1(c1cccc(C(=O)N3CCOCC3)n1)c1nnc(-c3c(F)cccc3F)cc12 too.
Return: 1.68

Enquiry: Now consider Cc1nnc(-c2nccc([C@@]34CC[C@@H](c5cc(-c6c(F)cccc6F)nnc53)C4(C)C)n2)[nH]1 and answer again.
Return: 1.44

Enquiry: # iterate: CC1(C)[C@@H]2CC[C@@]1(c1cncc(-n3ccc(CO)n3)n1)c1nnc(-c3c(F)cccc3F)cc12
Return: 0.78

Enquiry: Also, C[C@H]1CC[C@H](c2ccccc2)S(=O)(=O)N1Cc1ccc(C2(C(=O)O)CCOCC2)cc1F please.
Return: 3.04

Enquiry: How about C[C@H]1CC[C@H](c2ccccc2)S(=O)(=O)N1Cc1ccc([C@]2(C(=O)N(C)C)CC[C@H](n3cnnc3)CC2)cc1 ?
Return: 3.38

Enquiry: And for Cc1nnc([C@@]23CC[C@@H](c4cc(Oc5c(F)cccc5F)nnc42)C3(C)C)o1 ?
Return: 1.69

Enquiry: For CC(C)CN(Cc1ccc(-c2ccc(S(C)(=O)=O)cc2)nc1)S(=O)(=O)Cc1ccccc1 then?
Return: 2.89

Enquiry: Try this compound next: CC(C)(O)c1ccc(-c2nccc([C@@]34CC[C@@H](c5cc(-c6c(F)cccc6F)nnc53)C4(C)C)n2)cn1
Return: 0.64

Enquiry: Lookup CC(C)CN(c1cccc(Cl)c1)S(=O)(=O)c1ccc(OC2CCN(C(N)=O)CC2)cc1
Return: 2.03

Enquiry: Same question, CC1(C)[C@H]2CC[C@]1(c1cccc(C(=O)Nc3c[nH]c(=O)cn3)n1)c1nnc(-c3c(F)cccc3F)cc12 this time
Return: 1.54

Enquiry: Then what about the compound CC1(C)[C@H]2CC[C@]1(c1cncc(-c3nc(CS(C)(=O)=O)co3)n1)c1nnc(-c3c(F)cccc3F)cc12 ?
Return: 0.56

Enquiry: What do you have for CCOC(=O)N(CC)C[C@@]12CC[C@@H](c3cc(-c4c(F)cccc4F)nnc31)C2(C)C ?
Return: 0.70
